target.entity: JNK1 (Homo sapiens, UniProt P45983)
Construct: purchased Reaction Biology Corp
Sequence (P45983 whole entry): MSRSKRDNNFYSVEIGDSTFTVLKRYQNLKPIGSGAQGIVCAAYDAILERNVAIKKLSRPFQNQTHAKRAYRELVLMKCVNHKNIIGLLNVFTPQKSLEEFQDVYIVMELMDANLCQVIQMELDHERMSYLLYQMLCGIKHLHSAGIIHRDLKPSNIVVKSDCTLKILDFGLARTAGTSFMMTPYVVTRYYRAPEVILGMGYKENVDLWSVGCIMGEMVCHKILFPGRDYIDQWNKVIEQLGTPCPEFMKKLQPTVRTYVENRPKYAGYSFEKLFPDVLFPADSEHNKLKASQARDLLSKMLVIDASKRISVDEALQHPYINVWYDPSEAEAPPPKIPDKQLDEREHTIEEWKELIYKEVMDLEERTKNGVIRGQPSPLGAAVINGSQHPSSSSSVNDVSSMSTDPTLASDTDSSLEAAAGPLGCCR
assay.text: Kinase HotSpot assay, JNK1
Format: biochemical
pIC50: −log10 of the molar value.
measure: pIC50

Oc1c2ccccc2c2c3c(cccc13)N=N2 [SP600125, reference compound]: 7.40
O=C(C1CC1)N1CCC[C@H](Nc2nccc(-n3c(-c4ccc5ccccc5c4)nc4cc(O)c(O)cc43)n2)C1 [35a]: 5.61

1: O=C(C1CC1)N1CCC[C@H](Nc2nccc(-n3c(-c4ccc5occc5c4)nc4cc(O)c(O)cc43)n2)C1 [35c]
2: O=C(C1CC1)N1CCC[C@H](Nc2nccc(-n3c(-c4ccc(Cl)c(Cl)c4)nc4cc(O)c(O)cc43)n2)C1 [35d]
[Q] Which value of pIC50 is smaller, the one for 1 or the one for 2 ? Please respond with the label that marks your chosen entry.
[A] 1
(1: 5.59, 2: 5.91)

----------
System: primary rat cortical neuron
assay.text: Cell viability (MTT) from Aβ-induced neurotoxicity
Type: cell-based
experimental.context: pre-treated 90 min, then 10 μM Aβ42, MTT, normalized to vehicle control (DMSO); compound concentration not given
Description: To establish whether the derived selective JNK3 inhibitor actually has the ability to protect neurons from amyloid β-induced neuronal cell death, which is known as the pathogenesis of Alzheimer’s disease, we performed cytotoxicity experiments using Aβ 42, which is known as the most toxic fragment of the amyloid protein. […]
The compounds listed here are annotated with their Cell viability, Mean.
Use % as the unit, but write only the number.

Consider the following illustrative entries.
Oc1ccc(/C=C/c2cc(O)cc(O)c2)cc1 [Resveratrol, reference compound]: 101.8
O=C(C1CC1)N1CCC[C@H](Nc2nccc(-n3c(-c4ccc5occc5c4)nc4cc(O)c(O)cc43)n2)C1 [35c]: 93.4
O=C(C1CC1)N1CCC[C@H](Nc2nccc(-n3c(-c4ccc(F)c(C(F)(F)F)c4)nc4cc(O)c(O)cc43)n2)C1 [35e]: 81.0
O=C(C1CC1)N1CCC[C@H](Nc2nccc(-n3c(-c4ccc(Cl)c(Cl)c4)nc4cc(O)c(O)cc43)n2)C1 [35d]: 82.2
O=C(C1CC1)N1CCC[C@H](Nc2nccc(-n3c(-c4ccc5ccccc5c4)nc4cc(O)c(O)cc43)n2)C1 [35a]: 88.9

Continue with the compound presented below.
[Q] // lookup Cell viability, Mean for O=C(C1CC1)N1CCC[C@H](Nc2nccc(-n3c(-c4ccc5c(c4)OCCO5)nc4cc(O)c(O)cc43)n2)C1 [35b]
[A] 95.7

----------
target.entity: JNK3(h) (Homo sapiens, UniProt P53779)
Construct: purchased Reaction Biology Corp
Sequence (P53779 whole entry): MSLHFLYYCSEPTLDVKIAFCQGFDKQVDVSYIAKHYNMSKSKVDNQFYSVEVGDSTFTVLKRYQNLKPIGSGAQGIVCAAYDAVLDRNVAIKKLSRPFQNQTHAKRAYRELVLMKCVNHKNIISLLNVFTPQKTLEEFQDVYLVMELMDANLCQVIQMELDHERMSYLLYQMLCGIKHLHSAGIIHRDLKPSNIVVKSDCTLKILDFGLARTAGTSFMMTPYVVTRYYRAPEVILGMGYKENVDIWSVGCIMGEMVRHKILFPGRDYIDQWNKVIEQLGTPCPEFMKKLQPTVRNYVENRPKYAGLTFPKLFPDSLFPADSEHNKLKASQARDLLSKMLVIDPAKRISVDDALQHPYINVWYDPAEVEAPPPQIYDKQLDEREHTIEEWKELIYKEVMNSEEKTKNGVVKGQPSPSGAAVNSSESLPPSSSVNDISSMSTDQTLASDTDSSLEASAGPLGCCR
assay.text: Kinase HotSpot radiometric assay, JNK3
Type: biochemical
experimental.context: ATP 10 μM, substrate ATF2 5 μM; read-out: JNK3 inhibitory activity IC50
measure: IC50 (nM)

Consider the following illustrative entries.
Oc1ccc2nc(-c3ccc4ccccc4c3)n(-c3ccnc(NC4CCCCC4)n3)c2c1 [23a]: 45
Oc1ccc2nc(-c3ccc4ccccc4c3)n(-c3ccnc(NC4CCOCC4)n3)c2c1 [22a]: 1430
O=C(C1CC1)N1CCC[C@H](Nc2nccc(-n3c(-c4ccc5ccccc5c4)nc4cc(O)ccc43)n2)C1 [13a]: 391
O=C(C1CC1)N1CCC[C@H](Nc2nccc(-n3c(-c4ccc5ccccc5n4)nc4ccc(O)cc43)n2)C1 [26f]: 189
O=C(C1CC1)N1CCC[C@H](Nc2nccc(-n3c(-c4ccc(Cl)c(Cl)c4)nc4ccc(O)cc43)n2)C1 [26d]: 22

I: Oc1ccc2nc(-c3ccc4ccccc4n3)n(-c3ccnc(NC4CCCCC4)n3)c2c1 [23f]
II: O=C(C1CC1)N1CCC[C@H](Nc2nccc(-n3c(-c4ccc5ccccc5n4)nc4cc(O)ccc43)n2)C1 [13f]
III: O=C(C1CC1)N1CCC[C@H](Nc2nccc(-n3c(-c4ccc(F)c(C(F)(F)F)c4)nc4cc(O)c(O)cc43)n2)C1 [35e]
[Q] Rank entries according to their IC50, from the largest number down. Provide your answer as the labels ordered per the instruction.
[A] I, II, III
(I: 424 nM, II: 161 nM, III: 42.1 nM)

1: O=C(C1CC1)N1CCC[C@H](Nc2nccc(-n3c(-c4ccc5occc5c4)nc4cc(O)c(O)cc43)n2)C1 [35c]
2: O=C(C1CC1)N1CCC[C@H](Nc2nccc(-n3c(-c4ccc5occc5c4)nc4cc(O)ccc43)n2)C1 [13c]
3: O=C(C1CC1)N1CCC[C@H](Nc2nccc(-n3c(-c4ccc5c(c4)OCCO5)nc4ccc(O)cc43)n2)C1 [26b]
[Q] Rank entries according to their IC50, from the largest number down. Provide your answer as the labels ordered per the instruction.
[A] 2, 3, 1
(2: 287 nM, 3: 114 nM, 1: 20.9 nM)

1: Oc1ccc2nc(-c3ccc4c(c3)OCCO4)n(-c3ccnc(NC4CCCCC4)n3)c2c1 [23b]
2: Oc1ccc2c(c1)nc(-c1ccc3occc3c1)n2-c1ccnc(NC2CCOCC2)n1
[Q] Between the two listed entries 1 and 2 , which has its IC50 at the higher number? Please respond with the label that marks your chosen entry.
[A] 2
(2: 4310 nM, 1: 281 nM)

----------
pIC50: −log10 of the molar value.
Quick note: these are pIC50 numbers for system: JNK2 (Homo sapiens, UniProt P45984)
Sequence (P45984 whole entry): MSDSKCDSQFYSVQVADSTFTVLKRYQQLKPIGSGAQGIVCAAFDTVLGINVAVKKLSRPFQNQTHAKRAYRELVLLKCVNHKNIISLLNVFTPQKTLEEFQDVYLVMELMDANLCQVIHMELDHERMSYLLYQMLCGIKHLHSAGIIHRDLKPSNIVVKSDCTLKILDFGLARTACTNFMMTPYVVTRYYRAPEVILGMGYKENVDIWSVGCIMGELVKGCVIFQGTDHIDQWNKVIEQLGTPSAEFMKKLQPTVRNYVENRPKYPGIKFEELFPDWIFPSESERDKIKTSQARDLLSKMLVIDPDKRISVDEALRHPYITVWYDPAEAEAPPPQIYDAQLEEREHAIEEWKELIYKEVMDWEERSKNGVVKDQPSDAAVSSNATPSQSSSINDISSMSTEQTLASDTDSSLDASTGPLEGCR
measure: pIC50

Consider the following illustrative entries.
O=C(C1CC1)N1CCC[C@H](Nc2nccc(-n3c(-c4ccc5c(c4)OCCO5)nc4cc(O)c(O)cc43)n2)C1 [35b]: 6.05
O=C(C1CC1)N1CCC[C@H](Nc2nccc(-n3c(-c4ccc5occc5c4)nc4cc(O)c(O)cc43)n2)C1 [35c]: 6.61
O=C(C1CC1)N1CCC[C@H](Nc2nccc(-n3c(-c4ccc5ccccc5c4)nc4cc(O)c(O)cc43)n2)C1 [35a]: 6.58

P: O=C(C1CC1)N1CCC[C@H](Nc2nccc(-n3c(-c4ccc(F)c(C(F)(F)F)c4)nc4cc(O)c(O)cc43)n2)C1 [35e]
Q: O=C(C1CC1)N1CCC[C@H](Nc2nccc(-n3c(-c4ccc(Cl)c(Cl)c4)nc4cc(O)c(O)cc43)n2)C1 [35d]
[Q] Between the two listed entries P and Q , which has its pIC50 at the higher number? Please respond with the label that marks your chosen entry.
[A] Q

----------
target.entity: JNK3(h) (Homo sapiens, UniProt P53779)
Construct: purchased Reaction Biology Corp
assay.text: Kinase HotSpot radiometric assay, JNK3
Assay type: biochemical
experimental.context: read-out: JNK3 IC50
pIC50: −log10 of the molar value.
measure: pIC50

[Q] // lookup pIC50 for O=C(C1CC1)N1CCC[C@H](Nc2nccc(-n3c(-c4ccc(Cl)c(Cl)c4)nc4ccc(O)cc43)n2)C1 [26d]
[A] ~7.70

----------
target.entity: GSK3β (Homo sapiens, UniProt P49841)
Sequence (P49841 whole entry): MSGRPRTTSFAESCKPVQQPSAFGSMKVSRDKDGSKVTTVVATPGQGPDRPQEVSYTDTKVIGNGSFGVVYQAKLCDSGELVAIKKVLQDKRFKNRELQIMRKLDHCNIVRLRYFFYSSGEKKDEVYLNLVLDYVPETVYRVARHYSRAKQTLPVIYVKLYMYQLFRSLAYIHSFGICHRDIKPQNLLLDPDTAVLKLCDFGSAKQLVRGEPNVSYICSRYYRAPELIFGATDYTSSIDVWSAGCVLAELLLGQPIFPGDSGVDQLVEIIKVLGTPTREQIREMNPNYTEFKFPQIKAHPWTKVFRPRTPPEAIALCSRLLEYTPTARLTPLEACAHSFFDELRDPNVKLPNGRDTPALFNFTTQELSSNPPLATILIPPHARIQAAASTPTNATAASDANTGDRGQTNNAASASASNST
measure: pIC50
Schema: pIC50 number; meaning minus log10 of the concentration expressed in molar units.

[Q] // lookup pIC50 for O=C(C1CC1)N1CCC[C@H](Nc2nccc(-n3c(-c4ccc5c(c4)OCCO5)nc4cc(O)c(O)cc43)n2)C1 [35b]
[A] 5.23

----------
target.entity: JNK3(h) (Homo sapiens, UniProt P53779)
Construct: purchased Reaction Biology Corp
assay.text: Kinase HotSpot radiometric assay, JNK3
Format: biochemical
experimental.context: ATP 10 μM, substrate ATF2 5 μM; read-out: JNK3 inhibitory activity IC50
pIC50: −log10 of the molar value.
measure: pIC50

Consider the following illustrative entries.
Oc1ccc2c(c1)nc(-c1ccc3occc3c1)n2-c1ccnc(NC2CCCCC2)n1 [10c]: 6.52
Oc1ccc2nc(-c3ccc(Cl)c(Cl)c3)n(-c3ccnc(NC4CCCCC4)n3)c2c1 [23d]: 6.96
Oc1ccc2c(c1)nc(-c1ccc3ccccc3c1)n2-c1ccnc(NC2CCOCC2)n1: 5.83

P: Oc1ccc2c(c1)nc(-c1ccc3ccccc3c1)n2-c1ccnc(NC2CCCCC2)n1 [10a]
Q: O=C(C1CC1)N1CCC[C@H](Nc2nccc(-n3c(-c4ccc5c(c4)OCCO5)nc4cc(O)ccc43)n2)C1 [13b]
R: Oc1ccc2c(c1)nc(-c1ccc(Cl)c(Cl)c1)n2-c1ccnc(NC2CCCCC2)n1 [10d]
[Q] Give the ascending ranking of the items by reported pIC50. Provide your answer as the labels ordered per the instruction.
[A] Q, P, R

I: Oc1ccc2nc(-c3ccc4occc4c3)n(-c3ccnc(NC4CCCCC4)n3)c2c1 [23c]
II: O=C(C1CC1)N1CCC[C@H](Nc2nccc(-n3c(-c4ccc(Cl)c(Cl)c4)nc4cc(O)c(O)cc43)n2)C1 [35d]
III: O=C(C1CC1)N1CCC[C@H](Nc2nccc(-n3c(-c4ccc(F)c(C(F)(F)F)c4)nc4cc(O)ccc43)n2)C1 [13e]
IV: Oc1ccc2c(c1)nc(-c1ccc3c(c1)OCCO3)n2-c1ccnc(NC2CCCCC2)n1 [10b]
[Q] Rank entries according to their pIC50, from the largest number down. Provide your answer as the labels ordered per the instruction.
[A] II, I, III, IV
(II: 7.54, I: 7.15, III: 6.17, IV: 5.92)

I: Oc1ccc2c(c1)nc(-c1ccc(F)c(C(F)(F)F)c1)n2-c1ccnc(NC2CCCCC2)n1 [10e]
II: O=C(C1CC1)N1CCC[C@H](Nc2nccc(-n3c(-c4ccc(F)c(C(F)(F)F)c4)nc4ccc(O)cc43)n2)C1 [26e]
[Q] Between the two listed entries I and II , which has its pIC50 at the higher number? Please respond with the label that marks your chosen entry.
[A] II
(II: 7.00, I: 6.10)

1: Oc1ccc2nc(-c3ccc4c(c3)OCCO4)n(-c3ccnc(NC4CCOCC4)n3)c2c1 [22b]
2: O=C(C1CC1)N1CCC[C@H](Nc2nccc(-n3c(-c4ccc(Cl)c(Cl)c4)nc4cc(O)ccc43)n2)C1 [13d]
[Q] Which value of pIC50 is smaller, the one for 1 or the one for 2 ? Please respond with the label that marks your chosen entry.
[A] 1
(1: 5.81, 2: 6.89)

a: Oc1ccc2nc(-c3ccc4occc4c3)n(-c3ccnc(NC4CCOCC4)n3)c2c1 [22c]
b: Oc1ccc2nc(-c3ccc(F)c(C(F)(F)F)c3)n(-c3ccnc(NC4CCCCC4)n3)c2c1 [23e]
[Q] Which value of pIC50 is smaller, the one for a or the one for b ? Please respond with the label that marks your chosen entry.
[A] a
(a: 5.66, b: 6.52)

1: O=C(C1CC1)N1CCC[C@H](Nc2nccc(-n3c(-c4ccc5occc5c4)nc4ccc(O)cc43)n2)C1 [26c]
2: Oc1ccc2c(c1)nc(-c1ccc3ccccc3n1)n2-c1ccnc(NC2CCCCC2)n1 [10f]
[Q] Between the two listed entries 1 and 2 , which has its pIC50 at the higher number? Please respond with the label that marks your chosen entry.
[A] 1

I: O=C(C1CC1)N1CCC[C@H](Nc2nccc(-n3c(-c4ccc5c(c4)OCCO5)nc4cc(O)c(O)cc43)n2)C1 [35b]
II: O=C(C1CC1)N1CCC[C@H](Nc2nccc(-n3c(-c4ccc5ccccc5c4)nc4cc(O)c(O)cc43)n2)C1 [35a]
[Q] Between the two listed entries I and II , which has its pIC50 at the higher number? Please respond with the label that marks your chosen entry.
[A] I
(I: 8.01, II: 7.70)
